Attribute: % elongation
- Target desc: Genome polyprotein (Poliovirus type 1 (strain Mahoney))
- Procedure text: poliovirus RdRp elongation inhibitors, primary screen, biochemical, fluorescence polarization, total intensity (AID 588519)
- Details: poliovirus polymerase elongation, measured here: total intensity read-out, stronger effect = lower value, compound at 16.7 µg/mL
In all, about 150,000 compounds went through this assay and about 1,000 (0.67%) were called active. The entries come from a sample that favours actives as a whole.
Give the value in % but do not write % after it.

Compound	Target desc	% elongation, %
O=C(CCc1ccccc1)NCC1COC2(CCCCC2)O1 (configuration not stated)	Genome polyprotein (Poliovirus type 1 (strain Mahoney))	112
COC(=O)Cc1cnc(NC(=O)CSc2nc(C(C)C)cc(=O)[nH]2)s1	Genome polyprotein (Poliovirus type 1 (strain Mahoney))	100
CCOC(=O)C1=C(C)NC(=O)NC1c1c(Cl)nc2c(C)cccn2c1=O (configuration not stated)	Genome polyprotein (Poliovirus type 1 (strain Mahoney))	109

Return the recorded % elongation value; entry: Cc1cc(SCc2ccccc2)nc2ccccc12 102

Give % elongation for the following compound: CN(C)c1ccc(/C=C(\C#N)NC(=O)c2ccccc2)cc1 108

Give a short answer stating reported % elongation for Cc1cc(N2CCNCC2)nc(C)n1 . 102

Consider the compound COc1nc(NCCO)nc(Nc2ccc(I)cc2C)n1 and give its recorded % elongation. 94

Given Cc1ccc2nc(C)c3c(c2c1)N(c1ccccc1)CC3 , respond with its % elongation. 89

Determine from records and report % elongation for Cc1ccc(-n2c(C)cc(C(=O)CN3CC(C)OC(C)C3)c2C)cc1 (configuration not stated) 99

Find the measured % elongation of COC(=O)c1ccccc1NC(=O)C1CC(c2cccc(Br)c2)=NO1 (configuration not stated) and report it. 106

Specify % elongation for COC(=O)c1cc(N2CCNCC2)nc2ccccc12 and stop. 88

Fill in reported % elongation for this entry: Cc1ccc2nc(-c3ccccn3)cc(C(=O)O)c2c1 100
